meta.source: ChEMBL document CHEMBL1147098

tested on: Plasmodium falciparum; experiment: Reduced parasitaemia in Plasmodium falciparum FCBR ring stage parasites; assay type: functional, organism-based
observation-type: pIC50
One number for each entry, as −log10 of the molar value.

Kindly note the recorded pIC50 for "CCCCCCCCCCCCc1cc(=O)c2ccccc2n1O" , which is 7.26

----------
test system: Toxoplasma gondii; test: Inhibition of Toxoplasma gondii lacZ-transfected RH strain in human foreskin fibroblasts assessed as beta galactosidase activity after 30 hrs by colorimetric assay; format: functional, organism-based
observation-type: IC50 (nM)
Answers are plain numbers, in nM.

Measured IC50, "CCCCCCCCCCCCc1cc(=O)c2ccccc2n1O" : 3.7
